# credit: patent US9556165B2

# Tested on: P. aeruginosa PAO1
# assay_info: MIC determination, broth microdilution (CLSI)
# Type: cell-based
# conditions_used: Pseudomonas aeruginosa, PAO1, strain 6

compound: Cc1cc(OCCO/N=C(\C(=O)N[C@@H]2C(=O)N(OS(=O)(=O)O)C2(C)C)c2csc(N)n2)ccc1C(=N)N [Example 13]
MIC, µg/mL: 8

compound: C[C@H]1[C@H](NC(=O)/C(=N\OCCOc2ccc(CC(=N)N)cc2)c2csc(N)n2)C(=O)N1S(=O)(=O)O [Example 62]
MIC, µg/mL: 4

compound: C[C@H]1[C@H](NC(=O)/C(=N\OCCSc2ccc(C(=N)N)cc2)c2csc(N)n2)C(=O)N1S(=O)(=O)O [Example 6]
MIC, µg/mL: 4

compound: CN1CC[C@H](NC(=N)c2ccc(OC[C@H](O/N=C(\C(=O)N[C@@H]3C(=O)N(OS(=O)(=O)O)C3(C)C)c3csc(N)n3)C(=O)O)cc2)C1 [Example 101]
MIC, µg/mL: 2

compound: CC1(C)[C@H](NC(=O)/C(=N\OCCOc2ccc(C(=N)N[C@H]3CCNC3)cc2)c2csc(N)n2)C(=O)N1OS(=O)(=O)O [Example 39]
MIC, µg/mL: 2

compound: C[C@H]1[C@H](NC(=O)/C(=N\OCCOc2ccc(C(=N)N)cc2)c2nc(N)sc2Cl)C(=O)N1S(=O)(=O)O [Example 61]
MIC, µg/mL: 2

compound: CC(C)(N)CNC(=N)c1ccc(OC[C@H](O/N=C(\C(=O)N[C@@H]2C(=O)N(OS(=O)(=O)O)C2(C)C)c2csc(N)n2)C(=O)O)cc1 [Example 94]
MIC, µg/mL: 2

compound: C[C@H]1[C@H](NC(=O)/C(=N\OC(C)(C)COc2ccc(C(=N)N)cc2)c2csc(N)n2)C(=O)N1S(=O)(=O)O [Example 18]
MIC, µg/mL: 4

compound: C[C@H]1[C@H](NC(=O)/C(=N\OCCOc2ccc(C(=N)NCCOC=O)cc2)c2csc(N)n2)C(=O)N1S(=O)(=O)O [Example 70]
MIC, µg/mL: 4

compound: CC1(C)[C@H](NC(=O)/C(=N\OCCOc2ccc(C(=N)NCCNC(=N)N)cc2)c2csc(N)n2)C(=O)N1OS(=O)(=O)O [Example 78]
MIC, µg/mL: 4

compound: C[C@H]1[C@H](NC(=O)/C(=N\OCCOc2cc(C(=N)N)n(C)n2)c2csc(N)n2)C(=O)N1S(=O)(=O)O [Example 72]
MIC, µg/mL: 8

compound: CC1(C)[C@H](NC(=O)/C(=N\O[C@@H](COc2ccc(C(=N)NC3CCCNC3)cc2)C(=O)O)c2csc(N)n2)C(=O)N1OS(=O)(=O)O (stereo partly shown) [Example 97]
MIC, µg/mL: 1

compound: C[C@H]1[C@H](NC(=O)/C(=N\OCCOc2ccc(C(=N)N)cc2)c2csc(N)n2)C(=O)N1S(=O)(=O)O [Example 9]
MIC, µg/mL: 2
